- Study system: Fatty acid synthase (Homo sapiens) (UniProt P49327)
- Sequence (P49327 whole entry, looked up): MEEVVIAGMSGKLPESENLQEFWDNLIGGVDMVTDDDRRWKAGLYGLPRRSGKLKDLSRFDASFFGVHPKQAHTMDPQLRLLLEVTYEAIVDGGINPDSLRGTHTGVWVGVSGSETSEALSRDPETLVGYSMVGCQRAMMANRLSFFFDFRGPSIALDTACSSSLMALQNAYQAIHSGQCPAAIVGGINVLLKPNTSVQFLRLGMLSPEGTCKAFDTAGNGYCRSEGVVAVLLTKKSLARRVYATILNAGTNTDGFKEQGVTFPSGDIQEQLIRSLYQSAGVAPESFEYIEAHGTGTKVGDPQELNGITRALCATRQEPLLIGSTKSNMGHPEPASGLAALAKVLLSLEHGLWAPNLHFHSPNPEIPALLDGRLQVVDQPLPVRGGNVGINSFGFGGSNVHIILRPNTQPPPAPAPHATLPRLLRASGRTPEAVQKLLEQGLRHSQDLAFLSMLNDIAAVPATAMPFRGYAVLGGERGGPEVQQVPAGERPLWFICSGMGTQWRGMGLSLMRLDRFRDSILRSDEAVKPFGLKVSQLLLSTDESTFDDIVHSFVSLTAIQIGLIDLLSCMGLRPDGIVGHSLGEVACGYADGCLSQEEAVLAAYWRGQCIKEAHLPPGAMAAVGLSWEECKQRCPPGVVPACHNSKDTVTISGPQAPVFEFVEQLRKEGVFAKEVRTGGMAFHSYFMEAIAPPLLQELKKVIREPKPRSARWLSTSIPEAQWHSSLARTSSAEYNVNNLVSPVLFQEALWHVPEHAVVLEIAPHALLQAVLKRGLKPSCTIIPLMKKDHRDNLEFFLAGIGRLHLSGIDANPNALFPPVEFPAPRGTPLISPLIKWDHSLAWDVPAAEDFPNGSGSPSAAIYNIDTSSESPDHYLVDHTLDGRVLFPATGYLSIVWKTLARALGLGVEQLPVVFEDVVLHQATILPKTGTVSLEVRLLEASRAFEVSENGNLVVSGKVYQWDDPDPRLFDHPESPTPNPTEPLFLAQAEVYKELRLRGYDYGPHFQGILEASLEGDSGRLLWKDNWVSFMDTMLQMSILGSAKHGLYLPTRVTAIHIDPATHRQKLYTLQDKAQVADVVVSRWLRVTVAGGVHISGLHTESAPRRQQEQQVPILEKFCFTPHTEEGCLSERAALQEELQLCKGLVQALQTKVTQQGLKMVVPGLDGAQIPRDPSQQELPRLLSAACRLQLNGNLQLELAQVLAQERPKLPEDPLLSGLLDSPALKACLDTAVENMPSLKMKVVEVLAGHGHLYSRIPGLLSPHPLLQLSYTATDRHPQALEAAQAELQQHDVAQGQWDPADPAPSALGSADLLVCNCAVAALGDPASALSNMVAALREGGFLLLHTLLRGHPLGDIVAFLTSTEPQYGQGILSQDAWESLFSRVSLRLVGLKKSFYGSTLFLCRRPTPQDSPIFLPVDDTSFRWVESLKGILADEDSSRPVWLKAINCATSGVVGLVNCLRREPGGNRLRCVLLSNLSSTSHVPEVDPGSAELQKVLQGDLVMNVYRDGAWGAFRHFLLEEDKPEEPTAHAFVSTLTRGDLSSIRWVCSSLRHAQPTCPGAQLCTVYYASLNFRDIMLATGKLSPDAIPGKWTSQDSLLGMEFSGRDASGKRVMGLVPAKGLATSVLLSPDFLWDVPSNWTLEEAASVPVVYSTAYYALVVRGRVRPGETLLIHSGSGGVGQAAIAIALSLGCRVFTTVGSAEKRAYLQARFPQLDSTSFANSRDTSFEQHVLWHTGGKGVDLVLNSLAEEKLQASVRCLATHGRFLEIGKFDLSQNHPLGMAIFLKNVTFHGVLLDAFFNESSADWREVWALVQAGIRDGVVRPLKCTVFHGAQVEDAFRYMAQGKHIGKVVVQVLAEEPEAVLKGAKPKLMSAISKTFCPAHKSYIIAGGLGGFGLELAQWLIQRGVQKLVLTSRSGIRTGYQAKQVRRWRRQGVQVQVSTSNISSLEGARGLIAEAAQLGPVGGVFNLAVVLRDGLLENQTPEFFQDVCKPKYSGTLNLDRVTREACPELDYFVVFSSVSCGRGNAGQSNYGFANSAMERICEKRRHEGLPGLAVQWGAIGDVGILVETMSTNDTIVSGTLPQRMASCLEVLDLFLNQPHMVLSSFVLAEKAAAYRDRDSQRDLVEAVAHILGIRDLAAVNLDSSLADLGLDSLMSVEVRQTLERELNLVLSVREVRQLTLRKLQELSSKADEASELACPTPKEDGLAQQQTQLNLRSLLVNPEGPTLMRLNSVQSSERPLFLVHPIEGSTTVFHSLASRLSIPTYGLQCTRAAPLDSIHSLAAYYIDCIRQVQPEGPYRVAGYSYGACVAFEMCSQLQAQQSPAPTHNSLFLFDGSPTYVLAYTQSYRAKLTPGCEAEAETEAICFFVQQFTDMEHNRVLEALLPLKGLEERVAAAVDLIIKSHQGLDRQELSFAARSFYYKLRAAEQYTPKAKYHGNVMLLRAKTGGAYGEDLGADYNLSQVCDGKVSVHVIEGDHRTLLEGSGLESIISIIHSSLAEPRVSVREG
- Assay overview: inhibition of human FAS-TE enzyme activity – biochemical, endpoint fluorescence intensity, uHTS hits, dose response (AID 624327)
- Assay context: recombinant FAS-TE, OMFH fluorogenic substrate
Quantity name: pIC50
pIC50 (log units): -log10 of the concentration in mol/L.

Sample `O=C(Nc1nc(-c2ccc(S(=O)(=O)N3CCCC3)cc2)cs1)c1ccco1` — what was its pIC50?
5.33

Using the record for `O=S(=O)(c1ccc(-c2csc(-c3cccnc3)n2)cc1)N1CCCCC1` , report its pIC50.
5.57

# lookup: pIC50 of `CCOC(=O)[C@]12Cc3ccccc3[C@H]1N(C1CCCCC1)C(=O)c1cc(OC)ccc12`
5.08

GET /values?readout=pIC50&item= O=C(CC(c1ccccc1)c1ccccc1)NCC(O)c1ccc([N+](=O)[O-])cc1 (configuration not stated)
4.87

Entry `COc1ccc(CNC(=O)/C=C/c2cc([N+](=O)[O-])ccc2OC(F)F)cc1OC` : reported pIC50 = ?
5.49

Record request: pIC50 value, item `COc1ccc(/C=C(\NC(=O)c2ccc([N+](=O)[O-])cc2)C(=O)NCCN2CCOCC2)cc1`
5.28

Query: pIC50; subject: `O=C(CN1C(=O)c2cccc([N+](=O)[O-])c2C1=O)N1CCc2ccccc2C1`
5.03

Field request: pIC50 | item: `CC(C)(C)OC(=O)NCCCC[C@H](NC(=O)c1nc[nH]c1C(=O)NC1CCN(C(=O)OC(C)(C)C)CC1)C(=O)OC(C)(C)C`
5.81

Please give the measured pIC50 for this molecule: O=C(Nc1nc(-c2ccc(S(=O)(=O)N3CCCC3)cc2)cs1)C1COc2ccccc2O1 (configuration not stated)
5.88

Could you share which pIC50 value was measured for `CCCc1cc(C(=O)Nc2cccc([N+](=O)[O-])c2)cs1` ?
5.06

I'd like to know its pIC50. The molecule in question is `O=S(=O)(c1ccc(-c2csc(-c3cccnc3)n2)cc1)N1CCCC1`
5.82

Fill in the blank: the reported pIC50 of `CN(C)S(=O)(=O)c1ccc(-c2csc(-c3cccnc3)n2)cc1` is ____.
5.28

Fill in the blank: the reported pIC50 of `CCN(CC(=O)NCc1cccs1)S(=O)(=O)c1ccc([N+](=O)[O-])cc1` is ____.
4.75

Name the reported pIC50 value associated with the molecule `Cc1cccc(N2CCN(C(=O)CNC(=O)c3cccc([N+](=O)[O-])c3)CC2)c1C`
5.82

Please look up its pIC50: `O=C(OCc1ccc([N+](=O)[O-])cc1)c1cc([N+](=O)[O-])ccc1N1CCOCC1`
5.57

Field request: pIC50 | item: `O=S(=O)(c1ccc(-c2csc(Nc3ccc(F)cc3)n2)cc1)N1CCCC1`
4.83

Return reported pIC50; argument: `Cc1cc(C(=O)N/N=C/c2cc([N+](=O)[O-])cc(C)c2O)n[nH]1`
4.93

Which pIC50 value is on record for `O=S(=O)(c1ccc(-c2csc(-c3cccnc3)n2)cc1)N1CCOCC1` ?
5.67

// returns reported pIC50 for input `N/C(=N\OC(=O)CCCc1ccccc1)c1cccc([N+](=O)[O-])c1`
4.92

Entry CC1(C(=O)NS(=O)(=O)c2ccc(C#N)cc2)CCN1C(=O)c1ccc(C2CCCCC2)cc1 (configuration not stated) has what pIC50?
5.28

Give the measured pIC50 of CCCC(C)c1nnc(NC(=O)c2cc(C(=O)OC)cc([N+](=O)[O-])c2)s1 (configuration not stated) .
5.15

Quick one: pIC50 of CCC(C)(C)C1CCC(=NNS(=O)(=O)c2ccc(C)c([N+](=O)[O-])c2)CC1 (configuration not stated) ?
4.75
